Molecular target: recombinant human norepinephrine transporter (Homo sapiens, UniProt P23975)
Construct: expressed in transfected cells; host or cells: HEK293 or MDCK
Sequence (P23975 whole entry): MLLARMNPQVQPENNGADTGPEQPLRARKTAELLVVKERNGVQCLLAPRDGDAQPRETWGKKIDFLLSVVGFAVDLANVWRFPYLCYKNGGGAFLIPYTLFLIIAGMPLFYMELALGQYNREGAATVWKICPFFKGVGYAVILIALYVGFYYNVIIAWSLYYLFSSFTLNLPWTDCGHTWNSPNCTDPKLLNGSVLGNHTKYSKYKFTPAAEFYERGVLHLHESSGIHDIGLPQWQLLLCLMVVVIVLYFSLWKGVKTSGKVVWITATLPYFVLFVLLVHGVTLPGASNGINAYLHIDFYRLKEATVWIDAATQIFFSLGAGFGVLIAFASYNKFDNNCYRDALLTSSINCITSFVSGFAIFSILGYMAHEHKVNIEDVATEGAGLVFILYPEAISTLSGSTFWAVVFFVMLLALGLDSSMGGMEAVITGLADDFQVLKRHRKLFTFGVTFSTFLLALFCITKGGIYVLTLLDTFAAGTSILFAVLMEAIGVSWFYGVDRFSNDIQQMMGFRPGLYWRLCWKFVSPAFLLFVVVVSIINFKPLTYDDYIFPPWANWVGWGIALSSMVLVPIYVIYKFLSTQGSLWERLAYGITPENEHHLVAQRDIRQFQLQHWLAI
Test: Norepinephrine functional uptake assay for human reuptake transporter
Assay type: cell-based
Conditions: [3H]norepinephrine uptake, HEK293 or MDCK cells expressing human norepinephrine transporter; read-out: Human IC50 (nM) NET
Procedure: Norepinephrine Functional Uptake Assay for Human Reuptake Transporter The cells were plated before the assay. Test compound and/or vehicle was preincubated with cells in modified HEPES buffer pH 7.1 or pH 7.4 for 20 minutes at 18 to 25° C. . […] After the cells were washed to remove [^3H]norepinephrine not internalized, the cells were lysed, and the amount of tritium in the cell lysate was measured using a liquid scintillation counter to determine [^3H]norepinephrine uptake. […]
Binary label based on IC50 with cut-off 600 nM: below gives true (1), not below gives false (0).

A record lists CNC(C)C1=Cc2ccccc2[C@H](c2ccc(Cl)c(Cl)c2)C1 (single isomer, unassigned) . Is its IC50 below 600 nM?
false (0)

A record lists CN(C)[C@H]1Cc2ccccc2[C@H](c2ccc(Cl)c(Cl)c2)C1 . Is its IC50 below 600 nM?
true (1)

A record lists CN[C@H]1CCc2ccccc2[C@H]1c1ccc(Cl)c(Cl)c1 (single isomer, unassigned) [Compound 36c] . Is its IC50 below 600 nM?
false (0)

A record lists CN(C)[C@@H]1c2ccccc2CC[C@@H]1c1ccc(Cl)c(Cl)c1 (single isomer, unassigned) [Compound 41a] . Is its IC50 below 600 nM?
false (0)

A record lists CN[C@@H]1Cc2cccc(OC)c2[C@H](c2ccc(Cl)c(Cl)c2)C1 (single isomer, unassigned) [Compound 32b.1] . Is its IC50 below 600 nM?
false (0)

A record lists CN[C@H]1Cc2cc(OC)ccc2[C@@H](c2ccc(Cl)c(Cl)c2)C1 (single isomer, unassigned) [Compound 32c.1] . Is its IC50 below 600 nM?
true (1)

A record lists CNC1c2ccccc2CCC1c1ccc(Cl)c(Cl)c1 (single isomer, unassigned) [Compound 40a] . Is its IC50 below 600 nM?
false (0)
